These measurements were taken from the Deep4Chem optical property database.

Examples of molecules with documented absorption maximum follow.
- protocol-summary: solvent given as SMILES
- conditions: in O
Respond numerically; units are nm and should not be typed.

Example entries begin here.
{"molecule": "CC1(C)C(/C=C/C=C/c2cc3ccc(O)cc3oc2=O)=[N+](CCCS(=O)(=O)[O-])c2ccccc21", "units-of-measure": "nm", "absorption maximum": 564}
{"molecule": "O=C(O)CCCCCn1c2ccc(Br)cc2c(=O)c2cc(S(=O)(=O)O)ccc21", "units-of-measure": "nm", "absorption maximum": 416}
{"molecule": "O=c1oc2ccccc2cc1-c1cc2ccccc2o1", "units-of-measure": "nm", "absorption maximum": 365}
{"molecule": "CCOC(=O)COc1ccc(C(c2c(C)[nH]c3ccccc23)c2c(C)[nH]c3ccccc23)cc1", "units-of-measure": "nm", "absorption maximum": 289}
{"molecule": "CC[N+]1(CC)CN2C(C)=CC(C)=C(C(=O)O)C2=N1", "units-of-measure": "nm", "absorption maximum": 343}

[Q] Name the recorded absorption maximum for `N#CC(C#N)=Cc1ccc(-c2ccc(-c3nc4ccccc4s3)c(O)c2)o1` .
[A] 394

[Q] Name the recorded absorption maximum for C[C@]12C(=O)NC(=O)N([C@H]3CC(O)[C@@H](CO)O3)[C@H]1[C@H]1Oc3cc4oc(=O)ccc4cc3[C@H]12 (stereo not given in full) .
[A] 329

[Q] Name the recorded absorption maximum for `C/C=C/C=C/C1=NC(=C\c2ccc(O)cc2)/C(=O)N1C` .
[A] 421

[Q] Name the recorded absorption maximum for `NNC(=O)N1C(=O)c2cc(S(=O)(=O)[O-])cc3c(N)c(S(=O)(=O)[O-])cc(c23)C1=O` .
[A] 458

[Q] Name the recorded absorption maximum for NS(=O)(=O)c1ccc(N2N=C(c3ccc(O)cc3)CC2c2ccccc2)cc1 (stereo not given) .
[A] 359

---

- protocol-summary: solvent given as SMILES
- conditions: in CN(C)C=O
observation-type: absorption maximum
Show the value, then the unit it is measured in.

Example entries begin here.
{"smiles-representation": "CCOC(=O)c1sc(SC)c2c(=O)n(C)nnc12", "absorption maximum": "391.5 nm"}
{"smiles-representation": "CSc1cc(-c2cc3cc4c5c(c3oc2=O)CCCN5CCC4)oc(=O)c1C#N", "absorption maximum": "545 nm"}
{"smiles-representation": "S=c1[nH]nc(-c2ccc(/C=C/c3ccc(-c4n[nH]c(=S)o4)cc3)cc2)o1", "absorption maximum": "334 nm"}
{"smiles-representation": "COc1cc(-c2nc3c4cccnc4c4ncccc4c3[nH]2)c(OC)cc1/C=C/c1ccncc1", "absorption maximum": "396 nm"}
{"smiles-representation": "COc1cnc(-c2cc[n+](C3=C(F)C(F)(F)C(F)(F)[C-]3F)cc2)s1", "absorption maximum": "410 nm"}
{"smiles-representation": "CC1(C)CCc2c(c3ccccc3c3nc4ccccc4nc23)O1", "absorption maximum": "438.98 nm"}
{"smiles-representation": "COc1ccc(-c2sc3c(-c4ccc(OC)cc4)c4n(c3c2-c2ccc(OC)cc2)[B-](F)(F)[N+]2=Cc3c(-c5ccc(OC)cc5)c5sc(-c6ccc(OC)cc6)c(-c6ccc(OC)cc6)c5n3[B-](F)(F)[N+]2=C4)cc1", "absorption maximum": "593 nm"}

[Q] Name the recorded absorption maximum for `CCN(CC)c1ccc2cc(/C(Cl)=C/C=C/C(=C(C#N)C#N)c3ccc4c(c3)c3ccccc3n4CC)c(=O)oc2c1` .
[A] 532 nm
